biological target: Alpha-2C adrenergic receptor (Homo sapiens) (UniProt P18825); assay: compounds altering alpha2C-coupled GIRK flux – cell-based, HEK293 alpha2C/GIRK1/2, thallium flux, primary screen (AID 624); settings: thallium flux BTC fluorescence, at 10 µM, actives lie on both sides;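 note: slope of fluorescence ratio to pre-addition baseline per second over 15 to 24 s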
Sequence (P18825 whole entry, looked up): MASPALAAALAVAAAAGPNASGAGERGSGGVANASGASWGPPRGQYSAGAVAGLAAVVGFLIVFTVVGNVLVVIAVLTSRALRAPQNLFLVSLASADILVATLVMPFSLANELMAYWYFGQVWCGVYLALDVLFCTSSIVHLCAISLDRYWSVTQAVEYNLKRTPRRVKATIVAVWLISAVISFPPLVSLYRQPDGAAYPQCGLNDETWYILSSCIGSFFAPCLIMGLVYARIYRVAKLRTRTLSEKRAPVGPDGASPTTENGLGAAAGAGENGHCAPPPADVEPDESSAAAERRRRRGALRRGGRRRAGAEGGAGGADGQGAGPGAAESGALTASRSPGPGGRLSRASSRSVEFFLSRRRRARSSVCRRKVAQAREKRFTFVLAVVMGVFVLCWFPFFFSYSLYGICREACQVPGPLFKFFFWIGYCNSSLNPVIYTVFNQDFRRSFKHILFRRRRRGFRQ
The source made the active and inactive calls.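 Rule for the calls: active = fluorescence slope after compound addition differing from the mean of all screened samples at 99.7% confidence, in either direction; inactive = the rest.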
Your answer must be one of the following: 1 = active, 0 = inactive

Past entries and their recorded results:
- COC(=O)C(O)(c1c[nH]c2ccccc12)C(F)(F)F (stereo not drawn): 0
- Cc1cnn(C2CCN(C)CC2)c1N: 0
- Cn1c(O)c(C=NC2CCN(Cc3ccccc3)CC2)c(=O)n(C)c1=O: 0
- COc1ccc(CN2CCN(C(=O)Cc3ccccc3)CC2)c(OC)c1: 0
- CCOCCN1CCC(OC(C)=O)C(C)C1 (stereo not drawn): 0
- CN(C)c1cc(N)c2c(n1)CCC2 (tested in a mixture with another compound): 0
- c1ccc(C2NCc3ccccc3-n3cccc32)cc1 (stereo not drawn): 0
- CCCCCCn1c(O)c(C=NCCN2CCCCC2)c(=O)[nH]c1=O: 0

Exercise: Hi, do you know how CCCCN1C(=O)NC(=O)C2(Cc3c(nc4c(C)cccn4c3=O)N3CCc4ccccc4C32)C1=O (stereo not drawn) came out in this test?
Solution: 0

Exercise: Check the results log: what was the call for `CCCCCCn1c(O)c(C=Nc2c(C)n(C)n(-c3ccccc3)c2=O)c(=O)[nH]c1=O` ?
Solution: 0

Exercise: Hi, sorry to bother you, what did the test record for `Cc1cc(C)c(C(=O)CN2CCOCC2)c(C)c1` ?
Solution: 0

Exercise: Lab log entry: `Cc1c2ccncc2c(C)c2c1[nH]c1ccccc12` — outcome as called in the assay?
Solution: 1

Exercise: Hi, sorry to bother you, what did the test record for CCC(C(=O)N1CCC2(CC1)OCCO2)c1ccccc1 (stereo not drawn) ?
Solution: 0

Exercise: Name the outcome recorded for `CNP1(NC)=NC(C(F)(F)F)=NC(C(F)(F)F)=N1` in the assay.
Solution: 0

Exercise: Hi, do you know how CC(CCc1ccccc1)NC(C)C(O)c1ccc(O)cc1 (stereo not drawn) came out in this test?
Solution: 0

Exercise: Dear colleague, could you share the recorded outcome for CC(C)(C)P(=O)(c1ccncc1)N1CCCC1 (stereo not drawn) when you have a moment?
Solution: 0

Exercise: # lookup: test call for `CC(=O)C1(c2ccccc2)CCNCC1`
Solution: 0

Reference source for all entries: PubChem BioAssay
